Each recorded value in this set is attributed to the supplement of paper PMC6757056.

B1: library; a variant is named by its letters at N, in order (parent)
chain: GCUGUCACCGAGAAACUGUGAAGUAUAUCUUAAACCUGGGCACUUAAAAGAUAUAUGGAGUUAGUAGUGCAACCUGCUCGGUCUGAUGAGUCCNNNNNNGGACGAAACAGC

Variants of: B1
measurementNotes: normalized RNA/DNA level with ligand (relative to sTRSVctl = 100) (log10 (% of sTRSVctl)); HEK293T; ligand: cyclic di-GMP (c-di-GMP-II aptamer); ligand concentration (+) RNA-Seq: 1 mM; higher = less ribozyme self-cleavage, higher mRNA level
conditionDetails: reporter: mCherry (pCS4076), ligand present: yes
measurementName: normalized RNA/DNA level with ligand (log10)
Lab note: write the figure by itself, no unit.

// known answers, use as guide
[
  {
    "variantLabel": "ACCAAG",
    "observedMeasurement": 1.71
  },
  {
    "variantLabel": "CGGUUG",
    "observedMeasurement": 1.81
  },
  {
    "variantLabel": "UAAAAA",
    "observedMeasurement": 1.78
  },
  {
    "variantLabel": "CGAUCG",
    "observedMeasurement": 1.87
  },
  {
    "variantLabel": "GCUGCG",
    "observedMeasurement": 1.87
  }
]

Would you kindly look at the next entry?
Input line: Fill in: normalized RNA/DNA level with ligand (log10) of `GUACUA` is ___
Output line: 1.8
